species on record: Homo sapiens; experiment: Selectivity ratio of IC50 for ETB receptor (unknown origin) to IC50 for ETA receptor (unknown origin)
Cut-off 7 on Ratio IC50: below means Yes, at or above means No.

A record lists CCCCOc1ccc2c(c1)c(=O)c(Cc1cccc(C(=O)O)c1)c(C(=O)O)n2Cc1cc2c(cc1CC)OCO2 . Is its Ratio IC50 below 7? No

A record lists CCc1cc2c(cc1Cn1c(C(=O)O)c(Cc3cccc(-c4nnn[nH]4)c3)c(=O)c3cc(OCCN)ccc31)OCO2 . Is its Ratio IC50 below 7? Yes

A record lists CCc1cc2c(cc1Cn1c(C(=O)O)c(Cc3cccc(C(=O)O)c3)c(=O)c3cc(OCC(C)C)ccc31)OCO2 . Is its Ratio IC50 below 7? No

A record lists CCc1cc2c(cc1Cn1c(C(=O)O)c(Cc3cccc(C(=O)O)c3)c(=O)c3cc(OCC4CCCC4)ccc31)OCO2 . Is its Ratio IC50 below 7? Yes

A record lists CCc1cc2c(cc1Cn1c(C(=O)O)c(Cc3cccc(-c4nnn[nH]4)c3)c(=O)c3cc(OCC4CCCC4)ccc31)OCO2 . Is its Ratio IC50 below 7? Yes
